Please provide measured CRF1R Emax % for the entries that follow.
System Tested: corticotropin releasing factor 1 receptor
Protocol: cell-based or functional assay
Ends that are not written are not given here.
Give bare numbers, in %.

Use the examples below as a reference point.
[
  {
    "Binder": "NDDPPISIDLPYYLLRNMIEMARIENEREQAGLNAKYLAEV-NH2 [SEQ ID NO 267]",
    "Endpoint Result": 22.8
  },
  {
    "Binder": "ZGPPISIDLPFQLLRKAIEIEKQEKEKQQATTNARLLDRV (C-terminal amide) [SEQ ID NO 363]",
    "Endpoint Result": 20
  },
  {
    "Binder": "ZGPPISIDLPIILLRKVIEIEKQEKEKQQAANNRLLLDTI (C-terminal amide) [SEQ ID NO 297]",
    "Endpoint Result": 27.2
  },
  {
    "Binder": "NDDPPISIDLPQYLLRNMIEMARIENEREQAGLNAKYLAEV-NH2 [SEQ ID NO 265]",
    "Endpoint Result": 9.3
  }
]

For each listed entry, give its CRF1R Emax %.
1. ZGPPISIDVPYQLLRKVIEIEKQEKEKQQAANNARLLDTI (C-terminal amide) [SEQ ID NO 374]
2. NDDPPISIDLPFHLLRNMIEMARIENEREQAGLNAKYLAEV-NH2 [SEQ ID NO 262]
3. ZGPPISIDLPLYLLRKMIEIEKQEKEKQQATTNARLLDRV (C-terminal amide) [SEQ ID NO 243]
4. ZGPPISIDLPLYLLRKMIEIEKQEKEKQQAANNALLLATI (C-terminal amide) [SEQ ID NO 245]
5. DNPSLSIDLPLILLRTLLELEKTQSQRERAEQNARIFARV-NH2 [SEQ ID NO 335]
6. ZGPPISIDLPLYLLRKMIEIEKQEKEKQQAANNALLLDTI (C-terminal amide) [SEQ ID NO 244]

**Result**
11
100
96
100
49.5
100

Hey, can you go through the list below and give me CRF1R Emax % for every item?
1. ZGPPISIDLPFFLLRKMIEIEKQEKEKQQAANNALLLATI (C-terminal amide) [SEQ ID NO 319]
2. ZGPPISIDLPYWLLRKMIEIEKQEKEKQQAANNRLLLDTI (C-terminal amide) [SEQ ID NO 215]

**Result**
1: 88.3; 2: 100
